# credit: patent US20250296938A1

Task for the reader: assign each of the following compounds its reported inhibition at 20 µM.
# target: Rac-1 (Homo sapiens)
# run_description: Ras GTP binding domain inhibition assay (Cy3-GTP/Cy5-GTP competition)
# setup_conditions: without SOS, read-out: Rac-1: % inh.

Some entries whose results are on file:
[
  {
    "compound": "Oc1nc(-c2ncc3n2CCCC3)nc2c(-c3ccccn3)csc12 [drawing 968]",
    "target": "Rac-1 (Homo sapiens)",
    "inhibition at 20 µM": "51 to 75%"
  },
  {
    "compound": "COC(=O)c1nc(-c2nccn2C)nc(O)c1O [drawing 959]",
    "target": "Rac-1 (Homo sapiens)",
    "inhibition at 20 µM": "76 to 100%"
  },
  {
    "compound": "COCCNc1nc(-c2nccn2C)nc2sc(-c3cccc(OC)c3Cl)c(-c3ccc(OC)cc3)c12 [drawing 1009]",
    "target": "Rac-1 (Homo sapiens)",
    "inhibition at 20 µM": "26 to 50%"
  },
  {
    "compound": "COC1CCN(c2nc(-c3nccn3C)nc3sc(-c4ccnc(N(C)C)c4)c(-c4ccccc4)c23)C1 (stereo not shown) [drawing 958]",
    "target": "Rac-1 (Homo sapiens)",
    "inhibition at 20 µM": "26 to 50%"
  },
  {
    "compound": "CO[C@H]1C[C@@H](Nc2nc(-c3nccn3C)nc3sc(C(=O)N4CCOCC4)c(-c4ccccc4)c23)C1 [drawing 1057]",
    "target": "Rac-1 (Homo sapiens)",
    "inhibition at 20 µM": "51 to 75%"
  }
]

Look up inhibition at 20 µM for the entries below, preserving their order.
1. COc1c(O)nc(-c2ccccn2)nc1Nc1ccccc1 [drawing 1015]
2. COCCNc1nc(-c2nccn2C)nc2sc(-c3cc(OC)ccc3Cl)c(-c3ccc(OC)cc3)c12 [drawing 1012]
3. COc1nc(-c2ccccn2)nc2c(-c3ccccn3)csc12 [drawing 1048]
4. O=C(c1nc(-c2ccccn2)nc(O)c1O)N1CCCC1 [drawing 966]
5. COC1CCN(c2nc(-c3nccn3C)nc3sc(-c4ccccc4Cl)c(-c4cscn4)c23)C1 (stereo not shown) [drawing 984]

1: 51 to 75%; 2: 1 to 25%; 3: 26 to 50%; 4: 26 to 50%; 5: 51 to 75%

Look up inhibition at 20 µM for the entries below, preserving their order.
1. COC1CCN(c2nc(-c3nccn3C)nc3sc(-c4ccn(C)n4)c(-c4ccccc4)c23)CC1 [drawing 991]
2. COCC(C)Nc1nc(-c2nccn2C)nc2sc(-c3ccn(C)n3)c(-c3ccc(OC)cc3)c12 (stereo not shown) [drawing 1004]
3. CO[C@H]1CC[C@@H](Nc2nc(-c3nccn3C)nc3sc(C(=O)N4CCCC4)c(-c4ccccc4)c23)C1 [drawing 1061]

1: 26 to 50%; 2: 0%; 3: 76 to 100%

* * *

# Test system: KRas Q61H mutant
# run_description: Ras GTP binding domain inhibition assay (Cy3-GTP/Cy5-GTP competition)
# Parameters: species or system human
# setup_conditions: 20 μM; with SOS (Table 7A)
measure_name: KRas Q61H mutant + SOS: % inh.

Some entries whose results are on file:
[
  {
    "molecule": "COc1c(F)cccc1-c1sc2nc(-c3nccn3C)nc(NC3CCC(OC)C3)c2c1-c1ccccc1 (centres unmarked) [drawing 886]",
    "observed": "B (26-50% inhibition)"
  },
  {
    "molecule": "COCCn1ccnc1-c1nc(O)c2scc(-c3ccc(OCC(C)C)nc3)c2n1 [drawing 898]",
    "observed": "C (51-75% inhibition)"
  },
  {
    "molecule": "CC(C)COc1ccc(-c2csc3c(O)nc(-c4nccn4Cc4ccccn4)nc23)cn1 [drawing 899]",
    "observed": "D (76-100% inhibition)"
  },
  {
    "molecule": "COc1c(O)nc(-c2ccccn2)nc1Nc1ccccc1 [drawing 880]",
    "observed": "C (51-75% inhibition)"
  },
  {
    "molecule": "COc1cccc(-c2sc3nc(-c4nccn4C)nc(NC4CCC(OC)C4)c3c2-c2ccccc2)c1F (centres unmarked) [drawing 883]",
    "observed": "D (76-100% inhibition)"
  },
  {
    "molecule": "COc1cccc(-c2sc3nc(-c4nccn4C)nc(N[C@@H]4CC[C@H](OC)C4)c3c2-c2ccccc2)c1F [drawing 884]",
    "observed": "D (76-100% inhibition)"
  },
  {
    "molecule": "CCn1cc(Nc2nc(-c3ccccn3)nc(O)c2OC)cn1 [drawing 881]",
    "observed": "B (26-50% inhibition)"
  },
  {
    "molecule": "CO[C@H]1CC[C@@H](Nc2nc(-c3nccn3C)nc3sc(C(=O)N4CCOCC4)c(-c4ccccc4)c23)C1 [drawing 927]",
    "observed": "D (76-100% inhibition)"
  }
]

Look up KRas Q61H mutant + SOS: % inh. for the entries below, preserving their order.
1. CO[C@H]1CC[C@@H](Nc2nc(-c3nccn3C)nc(C(=O)N3CCc4c(O)cccc4C3)c2C)C1 [drawing 901]
2. Cc1c(-c2ccn(C)n2)sc2nc(-c3nccn3C)nc(NCCOC(=O)N(C)C)c12 [drawing 918]
3. Cn1ccc(-c2sc3nc(-c4nccn4C)nc(O)c3c2-c2ccccc2)n1 [drawing 904]
4. Cn1ccc(-c2sc3nc(-c4nccn4C)nc(N[C@@H]4CC[C@H](O)C4)c3c2-c2ccccc2)n1 (racemic) [drawing 909]
5. COC1CCC(Nc2nc(-c3nccn3C)nc3sc(-c4cccc(O)c4F)c(-c4ccccc4)c23)C1 (centres unmarked) [drawing 885]

["B (26-50% inhibition)", "D (76-100% inhibition)", "B (26-50% inhibition)", "0 (0% inhibition)", "C (51-75% inhibition)"]

Look up KRas Q61H mutant + SOS: % inh. for the entries below, preserving their order.
1. COC1CCC(Nc2nc(-c3nccn3C)nc3sc(-c4cccc5[nH]ncc45)c(C)c23)C1 (centres unmarked) [drawing 895]
2. CO[C@H]1C[C@@H](Nc2nc(-c3nccn3C)nc3sccc23)C1 [drawing 903]
3. COc1cccc(-c2sc3nc(-c4nccn4C)nc(N[C@H]4C[C@@H](OC)C4)c3c2-c2ccccc2)c1F [drawing 891]
4. COc1cccc(-c2sc3nc(-c4nccn4C)nc(NC4CCC(OC)C4)c3c2C)c1F (centres unmarked) [drawing 893]
5. COc1cccc(Cn2ccnc2-c2nc(O)c3scc(-c4ccc(OCC(C)C)nc4)c3n2)c1 [drawing 900]
6. CO[C@H]1CC[C@@H](Nc2nc(-c3ncc[nH]3)nc3sc(-c4ccn(C)n4)c(-c4ccccc4)c23)C1 [drawing 911]
7. Cc1c(-c2ccn(C)n2)sc2nc(-c3nccn3C)nc(NCCCS(C)(=O)=O)c12 [drawing 916]
8. Cc1c(-c2ccn(C)n2)sc2nc(-c3nccn3C)nc(NCCCC(=O)N(C)C)c12 [drawing 917]

1. D (76-100% inhibition)
2. D (76-100% inhibition)
3. D (76-100% inhibition)
4. C (51-75% inhibition)
5. C (51-75% inhibition)
6. C (51-75% inhibition)
7. C (51-75% inhibition)
8. C (51-75% inhibition)

Given the entry CN(C)CCOCCNc1nc(-c2nccn2C)nc2sc(-c3ccn(C)n3)c(-c3ccccc3)c12 [drawing 907] , what KRas Q61H mutant + SOS: % inh. was observed with KRas Q61H mutant?
D (76-100% inhibition)
